Every entry's value here was drawn from ChEMBL document CHEMBL4311969.

Tested on: Mus musculus
Assay: Anticonvulsant activity in Kunming mouse assessed as MES-induced hind limb extension at 100 mg/kg, ip administered 0. 5 to 4 hrs before MES stimulation relative to control
Format: functional
Please provide measured Activity for the entries that follow.

Form field Activity, entry COc1cc(OC)c(OC)cc1/C=C/COC(=O)/C=C/c1cccc(Br)c1 : 25 - 100%

Form field Activity, entry COc1cc(OC)c(OC)cc1/C=C/COC(=O)/C=C/c1cccc(Cl)c1 : 25 - 100%

Form field Activity, entry COc1cc(OC)c(OC)cc1/C=C/COC(=O)/C=C/c1ccc(C(F)(F)F)cc1 : 25 - 100%
